src = the RNAGym collection of RNA variant scans (doi:10.7554/elife.90254)

B1: LINE1-full (parent)
chain: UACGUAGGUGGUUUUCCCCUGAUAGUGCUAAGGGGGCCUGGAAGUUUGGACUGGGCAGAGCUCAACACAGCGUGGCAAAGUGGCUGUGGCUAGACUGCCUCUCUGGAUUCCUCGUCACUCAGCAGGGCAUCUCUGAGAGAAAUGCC

Variants of: B1
Assay: self-cleavage, relative activity (ratio to wild type); higher = more cleavage; in vitro, sequencing; the parent is a self-cleaving ribozyme
Each entry below lists one item and its recorded self-cleavage value.
Reply briefly: the number, and no unit.

According to the records, this variant `UACGUAGGUGGUUUUCCCCUGAUAGUGCCAAGGGGGCCUGGAAGUUUGGACUAGGCAGAGCUCAACACAGCGUGGCAAAGUGGCUGUGGCUAGACUGCCUCUCUGGAUUCCUCGUCACUCAGCAGGGCAUCUCUGAGAGAAAUGCC` displays self-cleavage of 0.94

Field self-cleavage (entry `UACGUAGGUGGUCUUCCCCUGAUAGUGCUAAGGGGGCCUGGAAGUUUGGACUGGGCAGAGCUCAACACAGCGUGGCAAAGUGGCUGUGGCUAGACUGCCACUCUGGAUUCCUCGUCACUCAGCAGGGCAUCUCUGAGAGAAAUGCC` ) reads 0.7

Sample `UACGUAGGUGGUUUCCCCCUGAUAGUGCUAAGGGGGCCUGGAAGUUUGGACUGGGCAGAGCUCAACACAGCGUGGCAAAGUGGCUGUGGCUAGACUGCCUCUCUGGAUUCCUCGUCACUCAGCAGGGCAUCUCUGAGCGAAAUGCC` ; self-cleavage observed: 1.59

Entry `UACGUAGGUGGUUUUCCCCUGAUAGUGCUAAGGGGGCCUGGUAGUUUGGACUGGGCAGAGCUCAACACAGCGUGGCAAAGUGGCUGUGUCUAGACUGCCUCUCUGGAUUCCUCGUCACUCAGCAGGGCAUCUCUGAGAGAAAUGCC` ; self-cleavage = 0.04

Value of self-cleavage reported for the variant `UACGUAGGUGGUUUUCCCCUGAUAGUGCUAAGGGGGCCUGGAAGUUUGGACUGGGCAGAGCUCAACACAGCGUGGCAAAGUGGCUGUGGCUUGACUGCCUCUCUGGAUUCCUCGUCACUCAGCAGGGUAUCUCUGAGAGAAAUGCC` is 0.47

Memo: `UACGUAGGUGGUUUUCCCCUGAUAGUGCUAAGGGGGCUUGGAAGUUUGGACUGGGCAGAGCUCAACACAGCGUGGCAAAGUGGCUGUGGCUAGACUGCCUCUCUGGAUUCCUCGUCACUCAGCAGGGCUUCUCUGAGAGAAAUGCC` , reported self-cleavage: 0.31
